Listing of entries alongside the reported IC50.
biological target: c-MET (Homo sapiens)
Sequence (P08581 1078-1345 limits assumed): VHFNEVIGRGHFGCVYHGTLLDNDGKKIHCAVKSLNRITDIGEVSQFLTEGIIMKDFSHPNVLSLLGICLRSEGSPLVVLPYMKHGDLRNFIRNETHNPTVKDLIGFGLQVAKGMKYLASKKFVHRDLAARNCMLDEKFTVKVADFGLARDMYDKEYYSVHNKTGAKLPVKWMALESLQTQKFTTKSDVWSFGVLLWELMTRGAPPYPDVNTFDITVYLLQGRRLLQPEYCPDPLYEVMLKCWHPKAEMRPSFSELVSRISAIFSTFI
MEASUREMENT_LABEL: IC50

[[record]]
compound = "OCc1nn2c(Cc3ccc4ncc(Br)cc4c3)nnc2s1"
measurement_label = "IC50"
result = "> 10000 nM"

[[record]]
compound = "Cc1nn2c(Cc3c(F)cc4ncc(Br)cc4c3F)nnc2s1"
measurement_label = "IC50"
result = "100 to 1000 nM"

[[record]]
compound = "Cc1nn2c(Cc3ccc4ncc(-c5cnn(C)c5)cc4c3F)nnc2s1"
measurement_label = "IC50"
result = "< 100 nM"

[[record]]
compound = "CN(C)Cc1nn2c(Cc3c(F)cc4ncc(Br)cc4c3F)nnc2s1"
measurement_label = "IC50"
result = "1000 to 10000 nM"

[[record]]
compound = "Cn1cc(-c2cnc3ccc(Cc4nnc5sc(-c6cccnc6)nn45)cc3c2)cn1 [drawing 217]"
measurement_label = "IC50"
result = "< 100 nM"

[[record]]
compound = "C[C@@H](N)c1nn2c(Cc3ccc4ncc(-c5cnn(C)c5)cc4c3)nnc2s1"
measurement_label = "IC50"
result = "< 100 nM"

[[record]]
compound = "Cn1cc(-c2cnc3ccc(Cc4nnc5sc(CNCCF)nn45)cc3c2)cn1"
measurement_label = "IC50"
result = "< 100 nM"

[[record]]
compound = "Cc1nn2c(Cc3c(F)cc4ncc(-c5cnn(C)c5)cc4c3F)nnc2s1"
measurement_label = "IC50"
result = "< 100 nM"

[[record]]
compound = "Cn1cc(-c2cnc3ccc(Cc4nnc5sc(CNC6CC6)nn45)cc3c2)cn1"
measurement_label = "IC50"
result = "< 100 nM"

[[record]]
compound = "Cn1cc(-c2nn3c(Cc4ccc5ncccc5c4)cnc3s2)cn1"
measurement_label = "IC50"
result = "< 100 nM"


Reference for the values: patent US20090156594A1
